# System: K562 CRISPRi cells
# Test protocol: Constant region variant library pooled growth screen, K562
# Format: cell-based, human
# Condition context: sgRNA constant region variants; activity relative to the original, un-modified constant region cr995
In this section we review reported Mean relative activity values for a set of molecules.

Molecule	Mean relative activity
cr749 (nucleic acid, listed as DNA, chemistry not fully specified) guide: GTTTAAGAGCTAAGCTGGAAACAGCATAGCGAGTTTAAATAAGGCTAGTCCGTCATCAACTTGAAAAAGTGGCACCGCGTCGGTGCT	0.8857
cr890 (nucleic acid, listed as DNA, chemistry not fully specified) guide: GTTTAAGAGCTAAGCTGGAAACAGCATAGCAAGTTTAAATAAGGCTAGTCCGTTATCAACTTGAAAAAGTGGCACCGCGTCGGTGCC	0.7513
cr861 (nucleic acid, listed as DNA, chemistry not fully specified) guide: GTTTAAGAGCTAAGCTGGAAACAGCATAGCAAGTTTAAATAAGGCTAGTCCGTTAGCAACTTGAAAAAGTAGCACCGAGTCGGTGCT	0.6319
cr482 (nucleic acid, listed as DNA, chemistry not fully specified) guide: GTTTAAGAGCTAAGCTGGAAACAGCATAGCAAGTTTAAATAAGGCTTGTCCCTTATCAACTTGAAAAAGTGGCACCGAGTCGGTGCT	0.003006
